# Assay protocol: yeast display, Sf9 membrane polyspecificity reagent, FACS + sequencing; frameworks hold sequencing errors
Observable: polyreactivity (PSR sort gate)

* QVHLVESGGGLFQAGGSLRLSCAASGRTFYYNAMGWYRQAPGKEREFVAAITWSGTRTYYADSVKGRFTISRDNAKNTVYLQMNSLKPEDTAVYYCNARAGSGSRFGYWGEGTQVTVSS | high polyreactivity
* QVQLVESGGGLDQAGGSLRLSFAASGLIFAVYAMGWYRQAPGKERELVAGISASAASTYYADSVKGRFTISRDNAKNTVYLQMNSLKPEDTAVYYCAAGFYRRGKYDYWGQGTQVTVSS | high polyreactivity

###

# Assay protocol: yeast display, Sf9 membrane polyspecificity reagent, FACS + sequencing; frameworks hold sequencing errors
Observable: polyreactivity (PSR sort gate)

• QVQLVESGGGLVQAGGSLRLSCAASGSNFSSYALGWYRQAPGKERELVAAITSGGSTYYADSVKARFTISRDNAKNTVYLQMNSLKPEDTAVYYCNADISRDNDFDYWGQGTQVTVSS = low polyreactivity
• QVQLVESGAGLVQAGGSLRLSCAASGSIFSPYDMGWYRPAPGKERELVAAISRSGRTHYADSVKGRFTISRDNAKNTVYLQMNSLKPEDTAVYYCAAGVVSGYYYWGHGTQVTVSS = high polyreactivity
• QVLIEDSGGGLVQAGGSLRLSCAASGSIFYFYAMGWYRQAPGKERELVAAISYSVGSTYYADSVKGRFTISRVNAKNTVYLQMNSLKPEDTAVDYCAADYYYGAWDGYGDEKYYYWGQGTQVTVSS = low polyreactivity
• QVQLVESGGGLVQAGGSLRLSCAASGITLFYSAMGWYRQAPGKERELVAAISWSGGSTYYADSVKGRFTISRDNAKNTVYLQMNSLKPEDTAVYYCAAGYIRFYRSREYWGQGTQVTVSS = high polyreactivity
• QVQLVESGGGLVQAGGSLRLSCAASGLIFYIYAMGWYRQAPGKERELVAAITTGGRTNYADSVKGRFTISRDNAKNTVELQMNSLKPEDTAVYYCAKDFPIWISHGPDTDNDYWGQGTQVTVSS = low polyreactivity
• QVQLVESGGGLVQAGGSLRLSCAASGGNFERNAMGWYRQAPGKERELVAAITGSGGRTYYADSVKGRFTISRDNAKITVYLQMNSLKPEDTAVYFCAAVPWWKYKYWGQGTQVTVSS = high polyreactivity
• QVQLVESGGGLVQAGGSLRLSSAASGRTFGGYAMGWYRQAPGKERELVAAISWTGGSTYDADSVKGRFTISRDNAKNTVYLQMNSLKPEDTAVYYCNRDVGRNYQGPEYYYWGQGTQVTVSS = low polyreactivity
• QVQLVESGGGLVQAGGSLRLSCAASGNIFGIYAMGWYRQAPGKERELVAAIRGRGASTYYADSVKGRFTISRDNAKNTVYLQMNSLKPEDTAVYYCAVDVPLSRYWWRRTYDYWGQGTQVTVSS = low polyreactivity
• QVQLVESGGGLVQAGGTLRLSCAATGRTFAPNSMGWYRHAPGKERELFAAISWSGTSTYYADSVKGRFTISRDNAKNTVYLQMNSLKPEDTAVYYCAADLEGRVGSPWTYDYWGQGTQVTVSS = low polyreactivity
• QVQLVESGGGLVQAGGILRLSCAASGSIFYAYAMGWNRQAPGKEAEFVARISGSGGSTYYADSVKGRFTISRDNAKNTVYLQMNSLKPEDTAVYYCAATRERYKYYKRYYWGQGTQVTVSS = low polyreactivity
• QVQLVESGGGLVQAGGSLRLSCAASGSILQDYTMGWYRQAPGKERELVAAITWNGGSTYYADSVKGRFTISRDNEKNTVYLHMTSLKPEHTAVYYCAAYCRVVPSFYYWGQGTQVTVSS = low polyreactivity
